- System: CFTR (Homo sapiens, UniProt P13569, DEL508-508)
- Construct: endogenous in cells; host or cells: primary human bronchial epithelial cells from CF subjects (F508del/MF-HBE), differentiated at air-liquid interface
- Sequence (P13569 with tags, fused parts or gaps DEL508-508): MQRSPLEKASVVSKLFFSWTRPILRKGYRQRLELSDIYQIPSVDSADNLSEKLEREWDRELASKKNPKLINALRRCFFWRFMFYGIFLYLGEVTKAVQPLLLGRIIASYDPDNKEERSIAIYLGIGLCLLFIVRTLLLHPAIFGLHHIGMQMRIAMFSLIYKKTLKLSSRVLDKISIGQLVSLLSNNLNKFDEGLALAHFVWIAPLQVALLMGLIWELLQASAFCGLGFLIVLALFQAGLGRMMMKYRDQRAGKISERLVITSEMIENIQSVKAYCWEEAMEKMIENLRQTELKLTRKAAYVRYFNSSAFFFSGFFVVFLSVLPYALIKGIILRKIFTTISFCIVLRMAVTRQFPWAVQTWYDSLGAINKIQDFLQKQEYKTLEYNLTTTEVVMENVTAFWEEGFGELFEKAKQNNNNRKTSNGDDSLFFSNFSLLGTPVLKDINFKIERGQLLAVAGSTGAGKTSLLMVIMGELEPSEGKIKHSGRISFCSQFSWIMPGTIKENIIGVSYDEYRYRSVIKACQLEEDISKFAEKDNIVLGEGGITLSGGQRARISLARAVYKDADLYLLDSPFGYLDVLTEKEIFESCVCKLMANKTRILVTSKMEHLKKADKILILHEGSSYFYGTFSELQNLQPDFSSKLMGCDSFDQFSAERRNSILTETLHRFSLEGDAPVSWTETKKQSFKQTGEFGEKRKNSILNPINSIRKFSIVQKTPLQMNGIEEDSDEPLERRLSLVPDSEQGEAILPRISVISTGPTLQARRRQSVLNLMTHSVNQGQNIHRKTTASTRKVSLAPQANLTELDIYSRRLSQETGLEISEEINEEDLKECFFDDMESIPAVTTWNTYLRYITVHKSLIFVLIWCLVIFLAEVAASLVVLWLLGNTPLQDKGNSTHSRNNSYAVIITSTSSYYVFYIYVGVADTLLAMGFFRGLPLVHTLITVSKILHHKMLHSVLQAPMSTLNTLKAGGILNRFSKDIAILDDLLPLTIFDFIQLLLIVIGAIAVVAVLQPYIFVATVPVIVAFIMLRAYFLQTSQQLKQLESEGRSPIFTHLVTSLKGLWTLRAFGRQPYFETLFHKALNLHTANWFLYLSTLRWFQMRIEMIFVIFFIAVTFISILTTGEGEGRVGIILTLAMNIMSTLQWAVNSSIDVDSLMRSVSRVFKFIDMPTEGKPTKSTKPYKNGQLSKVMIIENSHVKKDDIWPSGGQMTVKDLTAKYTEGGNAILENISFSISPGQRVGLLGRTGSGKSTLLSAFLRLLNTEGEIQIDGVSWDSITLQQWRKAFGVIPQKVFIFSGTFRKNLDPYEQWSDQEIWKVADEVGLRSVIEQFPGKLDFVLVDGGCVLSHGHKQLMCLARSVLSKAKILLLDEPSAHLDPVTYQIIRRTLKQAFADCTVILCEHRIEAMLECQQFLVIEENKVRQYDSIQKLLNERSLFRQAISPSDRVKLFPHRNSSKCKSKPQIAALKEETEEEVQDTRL
- Experiment Notes: HBE assay: Ussing chamber assay of CFTR-mediated short-circuit currents
- Format: cell-based
- Condition Parameters: Table 13; read-out: HBE EC50
pEC50: −log10 of the molar value.

[
  {
    "Molecule": "COC1(C)CCN(c2cnc(CN3C(=O)c4cccc(c4)S(=O)(=O)Nc4nc(cc(-c5c(C)cccc5C)n4)OC[C@H]3CC(C)(C)C)nc2)CC1",
    "pEC50": "> 6.00"
  },
  {
    "Molecule": "COc1cnc(CN2C(=O)c3cccc(c3)S(=O)(=O)Nc3nc(cc(-c4c(C)cccc4C)n3)OC[C@H]2CC(C)(C)C)c(F)c1",
    "pEC50": "> 6.00"
  },
  {
    "Molecule": "Cc1cccc(C)c1-c1cc2nc(n1)NS(=O)(=O)c1cccc(c1)C(=O)N(Cc1cccc(N(CCO)C(C)C)n1)[C@H](CC(C)(C)C)CO2",
    "pEC50": "> 6.00"
  },
  {
    "Molecule": "Cc1cccc(C)c1-c1cc2nc(n1)NS(=O)(=O)c1cccc(c1)C(=O)N(Cc1ncc(N3CCC(C)(C)CC3)cc1C(F)(F)F)[C@H](CC(C)(C)C)CO2",
    "pEC50": "5.52 to 6.00"
  },
  {
    "Molecule": "Cc1cccc(C)c1-c1cc2nc(n1)NS(=O)(=O)c1cccc(c1)C(=O)N(Cc1ccc([C@@H](O)CO)cn1)[C@H](CC(C)(C)C)CO2 [Compound 1151]",
    "pEC50": "5.52 to 6.00"
  },
  {
    "Molecule": "Cc1cccc(C)c1-c1cc2nc(n1)NS(=O)(=O)c1cccc(c1)C(=O)N(Cc1cccc(N3CCC34CCOCC4)n1)[C@H](CC(C)(C)C)CO2",
    "pEC50": "> 6.00"
  }
]

###

- System: CFTR (Homo sapiens, UniProt P13569, DEL508-508)
- Construct: endogenous in cells; host or cells: primary human bronchial epithelial cells from CF subjects (F508del/MF-HBE), differentiated at air-liquid interface
- Experiment Notes: HBE assay: Ussing chamber assay of CFTR-mediated short-circuit currents
- Assay type: cell-based
- Condition Parameters: Table 10; read-out: HBE Max activity (%)
Listing of recorded Emax by entry.

[
  {
    "Compound": "Cc1cccc(C)c1-c1cc2nc(n1)NS(=O)(=O)c1cccc(c1)C(=O)N(CC1CCC(O)(CO)CC1)[C@H](CC(C)(C)C)CO2 (stereo partly drawn) [Compound 908]",
    "Emax": "> 60%"
  },
  {
    "Compound": "Cc1cccc(C)c1-c1cc2nc(n1)NS(=O)(=O)c1cccc(c1)C(=O)N(Cc1cccc(OCC(C)(C)C)n1)[C@H](CC(C)(C)C)CO2 [Compound 469]",
    "Emax": "> 60%"
  },
  {
    "Compound": "Cc1cccc(C)c1-c1cc2nc(n1)NS(=O)(=O)c1cccc(c1)C(=O)N(Cc1ccc(-c3cn[nH]c3)cn1)[C@H](CC(C)(C)C)CO2 [Compound 299]",
    "Emax": "> 60%"
  }
]

###

- System: UniProtKB P13569
- Experiment Notes: Membrane potential dye, Enteroid Assay A
- Type: cell-based
- Condition Parameters: Table 7; chloride transport as % of triple combination control (Enteroid Assay A)

[
  {
    "Molecule": "Cc1cccc(C)c1-c1cc2nc(n1)NS(=O)(=O)c1cccc(c1)C(=O)N(Cc1ccc(NCCO)nc1)[C@H](CC(C)C)CO2",
    "System": "UniProtKB P13569",
    "Ent. A Max Activity": "+++ (+++ is >60%)"
  },
  {
    "Molecule": "Cc1cccc(C)c1-c1cc2nc(n1)NS(=O)(=O)c1cccc(c1)C(=O)N(Cc1ccc(C(=O)O)nc1)[C@H](CC(C)C)CO2",
    "System": "UniProtKB P13569",
    "Ent. A Max Activity": "+++ (+++ is >60%)"
  },
  {
    "Molecule": "Cc1cccc(C)c1-c1cc2nc(n1)NS(=O)(=O)c1cccc(c1)CN(Cc1cnc(C3CCCCC3)nc1)[C@H](CC(C)C)CO2",
    "System": "UniProtKB P13569",
    "Ent. A Max Activity": "++ (++ is 30-60%)"
  },
  {
    "Molecule": "Cc1cccc(C)c1-c1cc2nc(n1)NS(=O)(=O)c1cccc(c1)CN(Cc1ccccc1OC(C)C)[C@H](CC(C)C)CO2",
    "System": "UniProtKB P13569",
    "Ent. A Max Activity": "++ (++ is 30-60%)"
  },
  {
    "Molecule": "Cc1cccc(C)c1-c1cc2nc(n1)NS(=O)(=O)c1cccc(c1)C(=O)N(C)C[C@@H](c1cccc(C(C)(C)C)c1)O2 (single isomer, unassigned)",
    "System": "UniProtKB P13569",
    "Ent. A Max Activity": "+++ (+++ is >60%)"
  },
  {
    "Molecule": "COCC1CCN(c2ccc(CN3C(=O)c4cccc(c4)S(=O)(=O)Nc4nc(cc(-c5c(C)cccc5C)n4)OC[C@H]3CC(C)C)cn2)CC1",
    "System": "UniProtKB P13569",
    "Ent. A Max Activity": "++ (++ is 30-60%)"
  },
  {
    "Molecule": "Cc1cccc(C)c1-c1cc2nc(n1)NS(=O)(=O)c1cccc(c1)CN(Cc1cccnc1OCC1CC1)[C@H](CC(C)C)CO2",
    "System": "UniProtKB P13569",
    "Ent. A Max Activity": "+++ (+++ is >60%)"
  },
  {
    "Molecule": "Cc1cccc(C)c1-c1cc2nc(n1)NS(=O)(=O)c1cccc(c1)CN(CCC1(C(F)(F)F)CC1)[C@H](CC(C)C)CO2",
    "System": "UniProtKB P13569",
    "Ent. A Max Activity": "++ (++ is 30-60%)"
  },
  {
    "Molecule": "Cc1cccc(C)c1-c1cc2nc(n1)NS(=O)(=O)c1cccc(c1)C(=O)N(Cc1ccc(NC[C@@H](O)CO)nc1)[C@H](CC(C)C)CO2",
    "System": "UniProtKB P13569",
    "Ent. A Max Activity": "+++ (+++ is >60%)"
  },
  {
    "Molecule": "Cc1cccc(C)c1-c1cc2nc(n1)NS(=O)(=O)c1cccc(c1)C(=O)N(C)[C@H](CC(C)C)C(c1ccccn1)O2 (stereo partly drawn)",
    "System": "UniProtKB P13569",
    "Ent. A Max Activity": "+++ (+++ is >60%)"
  },
  {
    "Molecule": "Cc1cccc(C)c1-c1cc2nc(n1)NS(=O)(=O)c1cccc(c1)C(=O)N(C)[C@H](c1ccc(C(C)(C)C)cc1)CO2 [Compound 1010]",
    "System": "UniProtKB P13569",
    "Ent. A Max Activity": "++ (++ is 30-60%)"
  },
  {
    "Molecule": "Cc1cccc(C)c1-c1cc2nc(n1)NS(=O)(=O)c1cccc(c1)C(=O)N(Cc1ccc(N3CCC4(CCC4)CC3)nc1)[C@H](CC(C)C)CO2",
    "System": "UniProtKB P13569",
    "Ent. A Max Activity": "+++ (+++ is >60%)"
  },
  {
    "Molecule": "Cc1cccc(C)c1-c1cc2nc(n1)NS(=O)(=O)c1cccc(c1)C(=O)N(CCC(C)(C)C)[C@H](CC1(C(F)(F)F)CC1)CO2",
    "System": "UniProtKB P13569",
    "Ent. A Max Activity": "+ (+ is <30%)"
  },
  {
    "Molecule": "Cc1cccc(C)c1-c1cc2nc(n1)NS(=O)(=O)c1cccc(c1)C(=O)N(Cc1ccc(C(=O)N(C)C)nc1)[C@H](CC(C)C)CO2",
    "System": "UniProtKB P13569",
    "Ent. A Max Activity": "+++ (+++ is >60%)"
  },
  {
    "Molecule": "Cc1cccc(C)c1-c1cc2nc(n1)NS(=O)(=O)c1cccc(c1)C(=O)N(C)C[C@@H](c1ccc(C(C)(C)C)cc1)O2 (single isomer, unassigned)",
    "System": "UniProtKB P13569",
    "Ent. A Max Activity": "++ (++ is 30-60%)"
  },
  {
    "Molecule": "Cc1cccc(C)c1-c1cc2nc(n1)NS(=O)(=O)c1cccc(c1)C(=O)N(C)CC(c1ccc(C3=CCOCC3)cc1)O2 (stereo not drawn) [Compound 670]",
    "System": "UniProtKB P13569",
    "Ent. A Max Activity": "++ (++ is 30-60%)"
  },
  {
    "Molecule": "Cc1cccc(C)c1-c1cc2nc(n1)NS(=O)(=O)c1cccc(c1)C(=O)N(Cc1ccc(N3CCC(O)CC3)nc1)[C@H](CC(C)C)CO2",
    "System": "UniProtKB P13569",
    "Ent. A Max Activity": "+++ (+++ is >60%)"
  },
  {
    "Molecule": "CC(=O)N1CCC(CCN2C(=O)c3cccc(c3)S(=O)(=O)Nc3nc(cc(-c4c(C)cccc4C)n3)OC[C@H]2CC(C)C)CC1",
    "System": "UniProtKB P13569",
    "Ent. A Max Activity": "+++ (+++ is >60%)"
  },
  {
    "Molecule": "COCCCCN1C(=O)c2cccc(c2)S(=O)(=O)Nc2nc(cc(-c3c(C)cccc3C)n2)OC[C@H]1CC(C)C",
    "System": "UniProtKB P13569",
    "Ent. A Max Activity": "+++ (+++ is >60%)"
  },
  {
    "Molecule": "Cc1cccc(C)c1-c1cc2nc(n1)NS(=O)(=O)c1cccc(c1)CN(C(=O)CC(C)(C)C)[C@H](CC(C)C)CO2",
    "System": "UniProtKB P13569",
    "Ent. A Max Activity": "+ (+ is <30%)"
  },
  {
    "Molecule": "Cc1cccc(C)c1-c1cc2nc(n1)NS(=O)(=O)c1cccc(c1)C(=O)N(Cc1ccc(OCCN(C)C)nc1)[C@H](CC(C)C)CO2",
    "System": "UniProtKB P13569",
    "Ent. A Max Activity": "+++ (+++ is >60%)"
  },
  {
    "Molecule": "Cc1cccc(C)c1-c1cc2nc(n1)NS(=O)(=O)c1cccc(c1)C(=O)N(CCC1CCOCC1)[C@H](C)CO2",
    "System": "UniProtKB P13569",
    "Ent. A Max Activity": "+ (+ is <30%)"
  },
  {
    "Molecule": "Cc1cccc(C)c1-c1cc2nc(n1)NS(=O)(=O)c1cccc(c1)C(=O)N(C)C[C@H](c1ccc(C(C)(C)C)cc1)O2 (single isomer, unassigned)",
    "System": "UniProtKB P13569",
    "Ent. A Max Activity": "+++ (+++ is >60%)"
  },
  {
    "Molecule": "Cc1cccc(C)c1-c1cc2nc(n1)NS(=O)(=O)c1cccc(c1)CN(Cc1cnn(-c3ccccc3)c1C)[C@H](CC(C)C)CO2",
    "System": "UniProtKB P13569",
    "Ent. A Max Activity": "+++ (+++ is >60%)"
  }
]
